TESTED_TARGET: 5HT6-human recombinant receptor (Homo sapiens, UniProt P50406)
Construct: purchased Receptor Biology; host or cells: HEK-293 cell membranes
Sequence (P50406 whole entry): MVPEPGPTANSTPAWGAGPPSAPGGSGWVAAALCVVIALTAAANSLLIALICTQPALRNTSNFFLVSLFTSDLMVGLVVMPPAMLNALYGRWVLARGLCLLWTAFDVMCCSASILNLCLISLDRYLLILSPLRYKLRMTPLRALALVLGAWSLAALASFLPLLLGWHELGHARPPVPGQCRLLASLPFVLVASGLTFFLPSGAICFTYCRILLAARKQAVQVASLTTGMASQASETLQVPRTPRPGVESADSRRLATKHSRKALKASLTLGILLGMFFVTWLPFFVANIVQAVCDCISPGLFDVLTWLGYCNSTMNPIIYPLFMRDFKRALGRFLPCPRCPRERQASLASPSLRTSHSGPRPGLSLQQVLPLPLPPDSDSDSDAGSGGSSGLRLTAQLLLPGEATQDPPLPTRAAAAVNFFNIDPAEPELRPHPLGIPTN
MEASUREMENT_NOTES: Binding to serotonin receptor 5-HT6 ([3H]-LSD displacement)
ASSAY_CONDITIONS: membranes of HEK-293 cells expressing the receptor; radioligand [3H]-LSD 2.7 nM; 60 min, 37° C.
Structures can show the parent of a compound that is named as a salt.
MEASURED_ENDPOINT: Ki (nM)
Please give a number only; it is taken to be in nM.

Query: Tell me measured Ki for O=S(=O)(Nc1ccc2c(c1)CCNC2)c1cccc2c(Cl)cccc12 [Example 42, hydrochloride] please.
Result: 9.3

Query: Look up and state reported Ki for Cc1ccc(S(=O)(=O)Nc2ccc3c(c2)CCNC3)c2ccccc12 [Example 6, hydrochloride]
Result: 14.5

Query: Fill in reported Ki for this entry: Cc1ccc(S(=O)(=O)Nc2ccc3c(c2)CNCC3)c2ccccc12 [Example 55, hydrochloride]
Result: 3.8

Query: Fill in Ki for record O=S(=O)(Nc1ccc2c(c1)CNCC2)c1ccccc1-c1ccccc1 [Example 62, hydrochloride]
Result: 2.4

---

TESTED_TARGET: 5HT6-human recombinant receptor (Homo sapiens)
Construct: purchased Receptor Biology; host or cells: HEK-293 cell membranes
MEASUREMENT_NOTES: Binding to serotonin receptor 5-HT6 ([3H]-LSD displacement)
ASSAY_CONDITIONS: 1 h, compound at 100 nM; radioligand [3H]-LSD 2.7 nM
Description: Cell membranes of HEK-293 cells expressing the 5HT6-human recombinant receptor were supplied by Receptor Biology. In said membranes the receptor concentration is 2.18 pmol/mg protein and the protein concentration is 9.17 mg/ml. […] The commercial membrane is diluted (1:40 dilution) with the binding buffer: 50 mM Tris-HCl, 10 mM MgCl2, 0.5 mM EDTA (pH 7.4). […] Non-specific binding is determined in the presence of 100 μM of serotonin. […]
Where a name gives a salt, the structure may show the parent alone.
MEASURED_ENDPOINT: inhibition at 0.1 µM (%)
Please state the figure in %; there is no need to write the unit.

Query: Input O=S(=O)(Nc1ccc2c(c1)CCNC2)c1ccc(F)c2ccccc12 [Example 30, hydrochloride] , output reported inhibition at 0.1 µM.
Result: 85.2

Query: Give recorded inhibition at 0.1 µM. `CC(C)(C)OC(=O)N1CCc2cc(NS(=O)(=O)c3cccc4ccccc34)ccc2C1`
Result: 28.8

Query: Using known records, supply inhibition at 0.1 µM for O=S(=O)(Nc1ccc2c(c1)CCNC2)c1c(Cl)nc2sccn12 [Example 10, hydrochloride]
Result: 94.6

Query: Report measured inhibition at 0.1 µM; entry is `CC(C)(C)OC(=O)N1CCc2cc(NS(=O)(=O)c3ccc4ccccc4c3)ccc2C1`
Result: 10.6

---

Provide the recorded Ki for the entries that follow.
TESTED_TARGET: 5HT6-human recombinant receptor (Homo sapiens)
MEASUREMENT_NOTES: Binding to serotonin receptor 5-HT6 ([3H]-LSD displacement)
ASSAY_CONDITIONS: membranes of HEK-293 cells expressing the receptor; radioligand [3H]-LSD 2.7 nM; 60 min, 37° C.
Where a name gives a salt, the structure may show the parent alone.
Express it in nM; write the number only.

Query: Determine from records and report Ki for `O=S(=O)(Nc1ccc2c(c1)CCNC2)c1ccc2ccccc2c1`
Result: 8.7

Query: Tell me measured Ki for O=S(=O)(Nc1ccc2c(c1)CCNC2)c1cc2ccccc2s1 [Example 24, hydrochloride] please.
Result: 12.6

Query: // fetch Ki given entry O=S(=O)(Nc1ccc2c(c1)CNCC2)c1ccc(F)c2ccccc12 [Example 80, hydrochloride]
Result: 6.5

Query: Look up and report measured Ki for this entry: CN1CCc2ccc(NS(=O)(=O)c3c(Cl)nc4sccn34)cc2C1 [Example 53, hydrochloride]
Result: 3.8

Query: Answer with the recorded Ki for the compound listed here: Cc1ccc(S(=O)(=O)Nc2ccc3c(c2)CCN(C)C3)c2ccccc12 [Example 7, hydrochloride]
Result: 13.3

Query: Respond only with Ki recorded for Cc1c(S(=O)(=O)Nc2ccc3c(c2)CCN(C)C3)sc2ccc(Cl)cc12 [Example 5, hydrochloride]
Result: 79.8

Query: Please report the measured Ki for O=S(=O)(Nc1ccc2c(c1)CCNC2)c1c(Cl)nc2sccn12 [Example 10, hydrochloride]
Result: 1.3

Query: Could you please provide reported Ki for Cc1c(S(=O)(=O)Nc2ccc3c(c2)CNCC3)sc2ccc(Cl)cc12 [Example 60, hydrochloride] ? Thanks!
Result: 49.4

---

TESTED_TARGET: 5HT6-human recombinant receptor (Homo sapiens)
MEASUREMENT_NOTES: Binding to serotonin receptor 5-HT6 ([3H]-LSD displacement)
ASSAY_CONDITIONS: membranes of HEK-293 cells expressing the receptor; radioligand [3H]-LSD 2.7 nM; 60 min, 37° C.
Structures can show the parent of a compound that is named as a salt.
MEASURED_ENDPOINT: pKi
Remember, pKi is on a log scale: it is -log10 of the molar concentration.

Query: Supply measured pKi of CCc1ccc(OC)c(S(=O)(=O)Nc2ccc3c(c2)CCNC3)c1 [Example 35, hydrochloride] in your reply.
Result: 7.85

Query: Check the records and state pKi for O=S(=O)(Nc1ccc2c(c1)CCNC2)c1ccc(F)c2ccccc12 [Example 30, hydrochloride]
Result: 8.11

Query: Provide measured pKi value, entry: Cc1ccc(S(=O)(=O)Nc2ccc3c(c2)CN(C)CC3)c2ccccc12 [Example 56, hydrochloride]
Result: 7.99

Query: Answer with reported pKi of O=S(=O)(Nc1ccc2c(c1)CNCC2)c1ccc(Cl)c2ccccc12 [Example 81, hydrochloride]
Result: 8.03

Query: Look up and state reported pKi for O=S(=O)(Nc1ccc2c(c1)CCNC2)c1cccc2ccccc12 [Example 1, hydrochloride]
Result: 7.86

Query: Note down pKi recorded for O=S(=O)(Nc1ccc2c(c1)CCNC2)c1ccccc1-c1ccccc1 [Example 22, hydrochloride]
Result: 7.91

Query: Could you please provide reported pKi for CN1CCc2cc(NS(=O)(=O)c3ccc4ccccc4c3)ccc2C1 [Example 9, hydrochloride] ? Thanks!
Result: 8.04

Query: Name the recorded pKi of the item O=S(=O)(Nc1ccc2c(c1)CNCC2)c1c(Cl)nc2sccn12 [Example 54, hydrochloride] in your answer.
Result: 7.97
